# log10(MIC) values compiled below
System: gram negative bacteria
Experiment: In vitro anti-bacterial activity assay (broth dilution MIC), gram negative bacteria
Type: cell-based, E. coli
Details: Escherichia coli, ATCC25922, 18 h, E. coli ATCC 25922; read-out: Median MIC's G− E. coli ATCC 25922
measurement.label: log10(MIC) (log10 of the value in µg/mL)

INSERT INTO measurements (molecule, measurement_label, data_value) VALUES
  ('CC(C)N1CCN(CC(=O)c2ccc(O)c3c2C[C@H]2C[C@H]4[C@H](N(C)C)C(O)=C(C(N)=O)C(=O)[C@@]4(O)C(O)=C2C3=O)CC1 [BX]', 'log10(MIC)', 0.90),
  ('COc1ccc(-c2ccc(O)c3c2C[C@H]2C[C@H]4[C@H](N(C)C)C(O)=C(C(N)=O)C(=O)[C@@]4(O)C(O)=C2C3=O)cc1CNCC(N)=O [BE]', 'log10(MIC)', 1.81),
  ('CN(C)CC(=O)Nc1ccc(-c2ccc(O)c3c2C[C@H]2C[C@H]4[C@H](N(C)C)C(O)=C(C(N)=O)C(=O)[C@@]4(O)C(O)=C2C3=O)cc1 [BC]', 'log10(MIC)', 0.00),
  ('CN(CCC#N)Cc1cccc(-c2ccc(O)c3c2C[C@H]2C[C@H]4[C@H](N(C)C)C(O)=C(C(N)=O)C(=O)[C@@]4(O)C(O)=C2C3=O)c1 [BL]', 'log10(MIC)', 0.60),
  ('CN(C)CCNC(=O)c1cccc(-c2ccc(O)c3c2C[C@H]2C[C@H]4[C@H](N(C)C)C(O)=C(C(N)=O)C(=O)[C@@]4(O)C(O)=C2C3=O)c1 [AB]', 'log10(MIC)', 1.51);
